TEST_TARGET: T1, ANTIBODY EXPRESSION CONTROL
T1 construct: also called mouse anti-canine antibody (capture reagent of the expression control ELISA)
ASSAY_SUMMARY: SPR Biacore, expression control
QUANTITY_MEASURED: pKd
On this scale, pKd is minus log10 of a concentration expressed in M (mol/L).

Query mouse: canine 10F07 chimera (antibody, V domains shown, Mouse variable domains on canine IgG constant regions; also called 10F07 (Mouse:Canine); mouse:dog chimera 10F07) VH: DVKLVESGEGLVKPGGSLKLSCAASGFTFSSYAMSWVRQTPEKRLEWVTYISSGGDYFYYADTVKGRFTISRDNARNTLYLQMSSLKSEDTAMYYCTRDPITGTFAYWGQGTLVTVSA VL: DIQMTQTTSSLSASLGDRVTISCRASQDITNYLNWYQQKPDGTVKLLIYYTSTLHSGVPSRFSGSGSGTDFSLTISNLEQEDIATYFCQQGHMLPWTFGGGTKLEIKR yields pKd of 9.21

Record Mu_02D09_VH (SEQ ID NO: 31)_H35A (antibody, V domains shown) VH: EVQLVESGGGLVKPGGSLTLSCAASGFTFSDYGMAWLRQAPEKGLEWVAYISSGSRAVFFADTVKGRFTISRDNAKNTLFLQMTSLRSDDTAMYYCARDRYDGRGFAYWGQGTLVTVSA VL: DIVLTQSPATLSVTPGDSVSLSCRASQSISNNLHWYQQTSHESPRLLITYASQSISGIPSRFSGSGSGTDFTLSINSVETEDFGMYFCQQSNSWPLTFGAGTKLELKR , field pKd: 9.10

// pKd value for Mu_09E09_VH (SEQ ID NO: 35)_D99A (antibody, V domains shown) VH: DVKLVESGEGLVKPGGSLKLSCAASGFTFSSYAMSWVRQTPEKRLEWVAYISSGGDYIYYADTVKGRFTISRDNARNTLYLQMSSLKSEDTAMYYCTRAPITGTFAYWGQGTLVTVSA VL: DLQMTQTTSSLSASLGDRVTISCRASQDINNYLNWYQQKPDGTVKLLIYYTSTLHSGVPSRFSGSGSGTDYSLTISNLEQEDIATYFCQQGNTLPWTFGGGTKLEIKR : 9.66

Form: binder = Mu_09E09_VH (SEQ ID NO: 35)_T102A (antibody, V domains shown) VH: DVKLVESGEGLVKPGGSLKLSCAASGFTFSSYAMSWVRQTPEKRLEWVAYISSGGDYIYYADTVKGRFTISRDNARNTLYLQMSSLKSEDTAMYYCTRDPIAGTFAYWGQGTLVTVSA VL: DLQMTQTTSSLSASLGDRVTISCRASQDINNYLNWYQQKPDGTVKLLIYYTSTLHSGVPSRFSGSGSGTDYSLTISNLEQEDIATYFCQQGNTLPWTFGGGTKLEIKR ; pKd = 9.76

// recorded pKd for Mu_02D09_VH (SEQ ID NO: 31)_Y101A (antibody, V domains shown) VH: EVQLVESGGGLVKPGGSLTLSCAASGFTFSDYGMHWLRQAPEKGLEWVAYISSGSRAVFFADTVKGRFTISRDNAKNTLFLQMTSLRSDDTAMYYCARDRADGRGFAYWGQGTLVTVSA VL: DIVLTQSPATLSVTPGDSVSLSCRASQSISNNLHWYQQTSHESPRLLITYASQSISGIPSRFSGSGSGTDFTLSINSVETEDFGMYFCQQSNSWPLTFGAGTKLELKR : 9.55

pKd in this record for mouse: canine 09E09 chimera (antibody, V domains shown, Mouse variable domains on canine IgG constant regions; also called 09E09 (Mouse:Canine); mouse:dog chimera 09E09) VH: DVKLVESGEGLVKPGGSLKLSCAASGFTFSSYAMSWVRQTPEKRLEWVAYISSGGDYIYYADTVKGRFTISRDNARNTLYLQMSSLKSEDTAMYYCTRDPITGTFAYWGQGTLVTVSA VL: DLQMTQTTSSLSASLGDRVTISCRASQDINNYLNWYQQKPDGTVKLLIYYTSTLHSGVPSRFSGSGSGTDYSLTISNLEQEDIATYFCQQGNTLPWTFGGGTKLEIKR : 11.64

Value of pKd reported for the binder Mu_09E09_VH (SEQ ID NO: 35)_S35A (antibody, V domains shown) VH: DVKLVESGEGLVKPGGSLKLSCAASGFTFSSYAMAWVRQTPEKRLEWVAYISSGGDYIYYADTVKGRFTISRDNARNTLYLQMSSLKSEDTAMYYCTRDPITGTFAYWGQGTLVTVSA VL: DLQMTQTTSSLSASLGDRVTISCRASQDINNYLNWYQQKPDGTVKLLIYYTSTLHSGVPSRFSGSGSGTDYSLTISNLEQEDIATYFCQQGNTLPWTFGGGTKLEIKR is 9.74

Notebook: Mu_19F07_VL (SEQ ID NO: 49)_F94A (antibody, V domains shown) VH: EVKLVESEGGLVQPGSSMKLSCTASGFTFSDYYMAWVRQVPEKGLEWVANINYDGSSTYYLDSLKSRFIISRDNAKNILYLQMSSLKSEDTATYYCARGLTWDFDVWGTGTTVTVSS VL: DIVMTQSHKFMSPSVGDRVSITCKASQDVDTAVAWYQQKPGQSPKLLIYLASTRHTGVPDRFTGSGSGTDFTLTISNVQSEDLADYFCQQYSRAPLTFGAGTKLELKR , pKd read as 9.80

Consider Mu_10F07_VL (SEQ ID NO: 41)_W96A (antibody, V domains shown) VH: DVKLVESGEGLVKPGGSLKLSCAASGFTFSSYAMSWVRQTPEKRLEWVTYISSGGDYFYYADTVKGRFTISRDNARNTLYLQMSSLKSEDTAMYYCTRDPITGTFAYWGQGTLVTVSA VL: DIQMTQTTSSLSASLGDRVTISCRASQDITNYLNWYQQKPDGTVKLLIYYTSTLHSGVPSRFSGSGSGTDFSLTISNLEQEDIATYFCQQGHMLPATFGGGTKLEIKR . Its measured pKd is 9.05

Briefly, pKd measured for Mu_19F07_VL (SEQ ID NO: 49)_Q90A (antibody, V domains shown) VH: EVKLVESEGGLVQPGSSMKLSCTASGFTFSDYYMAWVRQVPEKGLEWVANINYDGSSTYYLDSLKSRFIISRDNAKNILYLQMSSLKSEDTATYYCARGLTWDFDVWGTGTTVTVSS VL: DIVMTQSHKFMSPSVGDRVSITCKASQDVDTAVAWYQQKPGQSPKLLIYLASTRHTGVPDRFTGSGSGTDFTLTISNVQSEDLADYFCQAYSRFPLTFGAGTKLELKR : 9.79
